Recorded EC50, one value per entry.
Measured On: TRAP1 enzyme (Homo sapiens)
Sequence (Q12931 60-704): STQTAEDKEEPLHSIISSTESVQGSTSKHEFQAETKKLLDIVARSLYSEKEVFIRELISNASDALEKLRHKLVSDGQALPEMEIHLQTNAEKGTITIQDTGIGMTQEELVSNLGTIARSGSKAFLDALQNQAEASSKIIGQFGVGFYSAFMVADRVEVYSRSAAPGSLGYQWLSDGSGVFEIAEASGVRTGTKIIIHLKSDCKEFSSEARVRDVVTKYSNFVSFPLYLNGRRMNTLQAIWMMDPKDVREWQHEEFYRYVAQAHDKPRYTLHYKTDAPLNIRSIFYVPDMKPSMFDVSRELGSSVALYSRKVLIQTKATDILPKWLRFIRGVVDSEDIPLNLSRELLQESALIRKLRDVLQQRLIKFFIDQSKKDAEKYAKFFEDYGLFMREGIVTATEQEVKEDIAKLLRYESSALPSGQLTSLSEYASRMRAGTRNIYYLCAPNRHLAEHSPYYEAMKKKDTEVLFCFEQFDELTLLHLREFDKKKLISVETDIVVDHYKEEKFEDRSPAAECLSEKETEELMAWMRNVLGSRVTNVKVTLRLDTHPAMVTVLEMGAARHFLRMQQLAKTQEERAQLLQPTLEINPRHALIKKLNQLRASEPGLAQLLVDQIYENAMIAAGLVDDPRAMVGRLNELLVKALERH
Measurement Notes: ADP Glo assay (ATPase activity of TRAP1)
Condition Details: 150 nM Trap1, 20 µM ATP, concentration for half maximal activation; read-out: ADP GLO DRC: GeoMean EC50
Reported Endpoint: EC50

>  <Compound>
Cn1nncc1C(=O)Nc1ccc2c(c1)S(=O)(=O)N(c1ccc(C(F)(F)F)cc1)CCO2 [Compound 2226]

>  <Measured On>
TRAP1 enzyme (Homo sapiens)

>  <Experimental Value>
30 to 100 µM

$$$$
>  <Compound>
O=C(Nc1ccc2c(c1)S(=O)(=O)N(c1ccc(C(F)(F)F)cc1)CCO2)c1ccccn1 [Compound 2197]

>  <Measured On>
TRAP1 enzyme (Homo sapiens)

>  <Experimental Value>
30 to 100 µM

$$$$
>  <Compound>
Cc1ncoc1C(=O)Nc1ccc2c(c1)S(=O)(=O)N(c1ccc(C(F)(F)F)cc1)CCCO2 [Compound 1989]

>  <Measured On>
TRAP1 enzyme (Homo sapiens)

>  <Experimental Value>
30 to 100 µM

$$$$
>  <Compound>
Cc1ncoc1C(=O)Nc1ccc2c(c1)S(=O)(=O)N(c1ccc(C(F)(F)F)cc1)CCO2 [Compound 1190]

>  <Measured On>
TRAP1 enzyme (Homo sapiens)

>  <Experimental Value>
< 20 µM

$$$$
>  <Compound>
O=C(Nc1ccc2c(c1)S(=O)(=O)N(c1ccc(C(F)(F)F)cc1)CCO2)c1ccc(CO)cn1 [Compound 2296]

>  <Measured On>
TRAP1 enzyme (Homo sapiens)

>  <Experimental Value>
< 20 µM

$$$$
>  <Compound>
CCn1nccc1C(=O)Nc1ccc2c(c1)S(=O)(=O)N(c1ccc(C(F)(F)F)cc1)CCO2 [Compound 2254]

>  <Measured On>
TRAP1 enzyme (Homo sapiens)

>  <Experimental Value>
< 20 µM

$$$$
>  <Compound>
O=C(Nc1ccc2c(c1)S(=O)(=O)N(c1ccc(C(F)(F)F)cc1)CCO2)c1ccncn1 [Compound 2175]

>  <Measured On>
TRAP1 enzyme (Homo sapiens)

>  <Experimental Value>
< 20 µM

$$$$

###

Measured On: TRAP1 enzyme (Homo sapiens, UniProt Q12931)
Sequence (Q12931 60-704): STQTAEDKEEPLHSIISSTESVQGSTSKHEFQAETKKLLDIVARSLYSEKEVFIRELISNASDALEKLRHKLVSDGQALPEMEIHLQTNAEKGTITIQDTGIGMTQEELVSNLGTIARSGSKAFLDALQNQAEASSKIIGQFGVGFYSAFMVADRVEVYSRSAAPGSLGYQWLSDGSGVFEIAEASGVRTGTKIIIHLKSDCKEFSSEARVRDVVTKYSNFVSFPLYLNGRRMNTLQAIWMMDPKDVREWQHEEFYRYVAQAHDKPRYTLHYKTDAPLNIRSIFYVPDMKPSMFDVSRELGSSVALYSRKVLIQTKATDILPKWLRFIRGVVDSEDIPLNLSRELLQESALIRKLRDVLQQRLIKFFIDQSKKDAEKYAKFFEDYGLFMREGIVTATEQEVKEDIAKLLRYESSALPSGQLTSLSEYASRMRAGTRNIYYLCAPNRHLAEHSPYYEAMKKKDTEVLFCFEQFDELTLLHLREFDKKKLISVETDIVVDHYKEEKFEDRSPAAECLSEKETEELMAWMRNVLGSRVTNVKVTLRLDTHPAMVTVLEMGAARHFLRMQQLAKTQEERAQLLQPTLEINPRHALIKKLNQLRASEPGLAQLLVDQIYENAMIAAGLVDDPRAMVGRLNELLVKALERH
Measurement Notes: ADP Glo assay (ATPase activity of TRAP1)
Type: biochemical
Condition Details: maximal percent activation; read-out: ADP GLO DRC: Mean Emax
Reported Endpoint: Emax

>  <Molecule>
O=C(Nc1ccc2c(c1)S(=O)(=O)N(c1ccc(C(F)(F)F)cc1)CCO2)c1csc(CO)n1

>  <Experimental Value>
129 to 149%

$$$$
>  <Molecule>
O=C(Nc1ccc2c(c1)S(=O)(=O)N(c1ccc(Br)cc1)CCO2)c1cnc(-c2ccccc2)[nH]1

>  <Experimental Value>
150 to 200%

$$$$
>  <Molecule>
Cc1cncc(C(=O)Nc2ccc3c(c2)S(=O)(=O)N(c2ccc(C(F)(F)F)cc2)CCO3)c1

>  <Experimental Value>
150 to 200%

$$$$
>  <Molecule>
O=C(Nc1ccc2c(c1)S(=O)(=O)N(c1ccc(C(F)(F)F)cc1)CCO2)c1cnn2c1CCC2

>  <Experimental Value>
150 to 200%

$$$$
>  <Molecule>
COc1nccnc1C(=O)Nc1ccc2c(c1)S(=O)(=O)N(c1ccc(C(F)(F)F)cc1)CCO2

>  <Experimental Value>
150 to 200%

$$$$
>  <Molecule>
Cc1ocnc1C(=O)Nc1ccc2c(c1)S(=O)(=O)N(c1ccccc1)CCO2

>  <Experimental Value>
150 to 200%

$$$$
>  <Molecule>
Cc1cnc(C(=O)Nc2ccc3c(c2)S(=O)(=O)N(c2ccc(C(F)(F)F)cc2)CCO3)nc1

>  <Experimental Value>
150 to 200%

$$$$
>  <Molecule>
O=C(Nc1ccc2c(c1)S(=O)(=O)N(c1ccc(C(F)(F)F)cc1)CCO2)c1cnc[nH]1

>  <Experimental Value>
150 to 200%

$$$$
>  <Molecule>
O=C(Nc1ccc2c(c1)S(=O)(=O)N(c1ccc(C(F)(F)F)cc1)CCO2)c1ccnc(CO)c1

>  <Experimental Value>
> 200%

$$$$
>  <Molecule>
CC(C)c1scnc1C(=O)Nc1ccc2c(c1)S(=O)(=O)N(c1ccc(C(F)(F)F)cc1)CCO2

>  <Experimental Value>
150 to 200%

$$$$
>  <Molecule>
Cc1ccncc1C(=O)Nc1ccc2c(c1)S(=O)(=O)N(c1ccc(C(F)(F)F)cc1)CCO2

>  <Experimental Value>
150 to 200%

$$$$
>  <Molecule>
Cc1cc(C(=O)Nc2ccc3c(c2)S(=O)(=O)N(c2ccc(C(F)(F)F)cc2)CCO3)n(C)n1

>  <Experimental Value>
129 to 149%

$$$$
>  <Molecule>
Cn1nc(C(=O)Nc2ccc3c(c2)S(=O)(=O)N(c2ccc(C(F)(F)F)cc2)CCO3)ccc1=O

>  <Experimental Value>
129 to 149%

$$$$
>  <Molecule>
O=C(Nc1ccc2c(c1)S(=O)(=O)N(c1ccc(C(F)(F)F)cc1)CCO2)c1cncs1

>  <Experimental Value>
150 to 200%

$$$$
>  <Molecule>
Cn1cc(C(=O)Nc2ccc3c(c2)S(=O)(=O)N(c2ccc(C(F)(F)F)cc2)CCO3)c2cccnc21

>  <Experimental Value>
129 to 149%

$$$$
>  <Molecule>
O=C(Nc1ccc2c(c1)S(=O)(=O)N(c1ccc(C(F)(F)F)cc1)CCO2)c1ccc(O)nn1

>  <Experimental Value>
129 to 149%

$$$$
>  <Molecule>
Cc1nn(C)cc1C(=O)Nc1ccc2c(c1)S(=O)(=O)N(c1ccc(C(F)(F)F)cc1)CCO2

>  <Experimental Value>
> 200%

$$$$
>  <Molecule>
CN1CCCCC1C(=O)Nc1ccc2c(c1)S(=O)(=O)N(c1ccc(C(F)(F)F)cc1)CCO2 (stereo not drawn)

>  <Experimental Value>
150 to 200%

$$$$
>  <Molecule>
O=C(Nc1ccc2c(c1)S(=O)(=O)N(c1ccc(C(F)(F)F)cc1)CCO2)c1csc(-c2ccccc2)n1

>  <Experimental Value>
129 to 149%

$$$$
>  <Molecule>
Cc1ccncc1C(=O)Nc1ccc2c(c1)S(=O)(=O)N(c1ccc(Cl)cc1)CCO2

>  <Experimental Value>
150 to 200%

$$$$
>  <Molecule>
Cc1ccc(C(=O)Nc2ccc3c(c2)S(=O)(=O)N(c2ccc(C(F)(F)F)cc2)CCO3)cn1

>  <Experimental Value>
129 to 149%

$$$$
>  <Molecule>
Cc1nc(C)c(C(=O)Nc2ccc3c(c2)S(=O)(=O)N(c2ccc(C(F)(F)F)cc2)CCO3)o1

>  <Experimental Value>
150 to 200%

$$$$
>  <Molecule>
Cc1nnccc1C(=O)Nc1ccc2c(c1)S(=O)(=O)N(c1ccc(C(F)(F)F)cc1)CCO2

>  <Experimental Value>
> 200%

$$$$
>  <Molecule>
Cc1cc(C(=O)Nc2cnc3c(c2)S(=O)(=O)N(c2ccc(C(F)(F)F)cc2)CCO3)cc(C)n1

>  <Experimental Value>
> 200%

$$$$
>  <Molecule>
O=C(Nc1ccc2c(c1)S(=O)(=O)N(c1ccc(C(F)(F)F)cc1)CCO2)c1cccnn1

>  <Experimental Value>
150 to 200%

$$$$
>  <Molecule>
Cc1ncc(C(=O)Nc2ccc3c(c2)S(=O)(=O)N(c2ccc(C(F)(F)F)cc2)CCO3)cn1

>  <Experimental Value>
150 to 200%

$$$$
>  <Molecule>
COc1cccnc1C(=O)Nc1ccc2c(c1)S(=O)(=O)N(c1ccc(C(F)(F)F)cc1)CCO2

>  <Experimental Value>
150 to 200%

$$$$
>  <Molecule>
O=C(Nc1ccc2c(c1)S(=O)(=O)N(c1ccc(C(F)(F)F)cc1)CCO2)c1ccc(O)nc1

>  <Experimental Value>
> 200%

$$$$
>  <Molecule>
Cn1nncc1C(=O)Nc1ccc2c(c1)S(=O)(=O)N(c1ccc(C(F)(F)F)cc1)CCO2

>  <Experimental Value>
150 to 200%

$$$$
>  <Molecule>
CC(C)n1cnc(C(=O)Nc2ccc3c(c2)S(=O)(=O)N(c2ccc(C(F)(F)F)cc2)CCO3)n1

>  <Experimental Value>
129 to 149%

$$$$
